// data source = paper PMC4786428

Molecular target: T1, RadA (Sms) wild type (Escherichia coli, UniProt P24554 1-460)
T1 sequence: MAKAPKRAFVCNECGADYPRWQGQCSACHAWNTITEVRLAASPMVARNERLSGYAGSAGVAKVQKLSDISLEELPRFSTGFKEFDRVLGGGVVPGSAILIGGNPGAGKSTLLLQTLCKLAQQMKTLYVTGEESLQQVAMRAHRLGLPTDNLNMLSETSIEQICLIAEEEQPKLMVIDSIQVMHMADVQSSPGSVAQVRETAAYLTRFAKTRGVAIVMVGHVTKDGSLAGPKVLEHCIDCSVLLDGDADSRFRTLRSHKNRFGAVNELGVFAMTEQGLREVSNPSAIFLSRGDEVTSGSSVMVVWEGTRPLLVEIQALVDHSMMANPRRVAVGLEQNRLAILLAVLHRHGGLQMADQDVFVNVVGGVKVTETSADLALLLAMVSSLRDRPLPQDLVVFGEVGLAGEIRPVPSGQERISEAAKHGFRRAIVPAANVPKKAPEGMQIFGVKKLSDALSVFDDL
Experiment: EMSA; 1 mM ADP (standard); apparent; Hill coefficient 1.5; 50 mM Tris-HCl pH 7.5, 10 mM MgCl2, 0.1 mM EDTA, 75 mM NaCl, 5 mM DTT, 100 ug/ml BSA, 1 mM nucleotide, 100 fmol DNA, 37 C for 20-30 min; 6% TBE polyacrylamide gel at room temperature
Conditions: protein: recombinant; tags: eXact tag cleaved; 2 extra N-terminal residues Thr-Ser remain; chain copies: 6
Endpoint name: Kd (nM)

> print(dat)
                                     binder  endpoint.value
1  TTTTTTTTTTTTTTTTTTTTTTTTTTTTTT (ssDNA) [poly(dT)30]             110
